Tested on: Plasmodium berghei
Assay: Screen against P. berghei liver stage (PbLuc), transformed with Luciferase, at 10uM
Type: functional, HepG2
Conditions: tested at 10 uM
About 8,600 (12%) of roughly 69,000 compounds showed an effect of 50% or more. For the sample, strong results were picked, then their nearest neighbours and some compounds at random.
In this section, each of the compounds is paired with its reported INHIBITION.
Give just the number in %; leave the unit off.

# count of solved cases: 8
Cc1c[nH]nc1C1CCN(C(=O)C2CCC2)CC1: -14.2
O[C@@H]1CN(c2nc3ccccc3s2)CC[C@H]1c1ccc2c(c1)OCO2: 68.1
CC(C)CNc1cc(-c2c[nH]nc2C2CCN(C(=O)C3CC3)C2)ccn1 (stereo unspecified): 86
Cc1nc(C)c(C(=O)NCCNc2ncccc2C#N)s1: 13.3
O=C(C1CCCCC1)N1CCC(c2n[nH]c3nccnc23)CC1: 44.1
CN1CC(C(=O)NCc2ccc(Br)cc2F)CC1=O (stereo unspecified): -18.5
CN1CCC(c2n[nH]cc2-c2ccnc(N)c2)C1 (stereo unspecified): 16.05
COCCC(=O)N1CCC(c2ncncc2-c2ccnc(N)c2)C1 (stereo unspecified): 0.696

Measured INHIBITION, CC(=O)N1CCC(c2n[nH]cc2-c2ccnc(N)c2)C1 (stereo unspecified) : 37.5

O[C@@H]1CN(c2cnc3ccccc3n2)CC[C@H]1c1ccc2c(c1)OCO2 has a reported INHIBITION of 60.1

Summary for this compound, O=C(C1CCCC1)N1CCC(c2n[nH]c3nccnc23)CC1 : INHIBITION is 51.5

###

Each entry below lists one item and its recorded INHIBITION value.
System: Plasmodium berghei
Assay: Screen against P. berghei liver stage (PbLuc), transformed with Luciferase, at 10uM
Format: functional, HepG2
Conditions: tested at 10 uM
Among all 69,000 compounds or so, about 8,600 (12%) showed an effect of 50% or more. The list comes from a sample in which strong results are over-represented; it also holds close analogues and randomly drawn compounds.
The reply should be a number in %, with the unit left off.

Completed entries (count: 5):
CN1CCCC(CCC(=O)N2CCc3c(nc(CC4CC4)[nH]c3=O)C2)C1 (stereo not given): 49.3
CS(=O)(=O)N[C@@H]1CN(Cc2ccccc2)C[C@H]1O: 22.8
CCS(=O)(=O)N1CCN(C(=O)NC(C)C)CC2(CNC(=O)C2)C1 (stereo not given): 3.25
CC(C)[C@H]1CN(C2Cc3ccccc3C2)C[C@@H]1NS(=O)(=O)N(C)C: 55
CS(=O)(=O)N[C@@H]1CN(Cc2ccccc2)C[C@@H]2CCCO[C@@H]21: -57.7

INHIBITION reading for CC(C)n1ccc(-c2cc(C(=O)N3CCN(C)CC3)c3ccccn23)n1 : 16.9

###

System: Plasmodium berghei
Test: Screen against P. berghei liver stage (PbLuc), transformed with Luciferase, at 10uM
Type: functional, HepG2
Conditions: tested at 10 uM
In all, about 69,000 compounds went through this assay and about 8,600 (12%) showed an effect of 50% or more. Shown is part of a subset that was picked to be rich in strong results.
Rule: Condition met for INHIBITION not less than 30%, Condition not met for anything less.

# count of solved cases: 8
CCc1nc(C)c(C(=O)N(C)Cc2cnc3ccccn23)o1: Condition not met
CCOC(=O)N(C)C1CCN(Cc2cnc3ccccn23)CC1: Condition not met
Cc1cnn(CC2CCCN2C(=O)c2n[nH]c(=O)c3ccccc23)c1 (stereo unspecified): Condition not met
O=C(Cc1ccccn1)N1CCc2c(O)nc(-c3cnccn3)nc2C1: Condition met
CC(C)N(C)C(=O)C1CCN(Cc2cnc3ccccn23)CC1: Condition met
O=C(CCC1CCCO1)N1CCc2nc(-c3cnccn3)nc(O)c2C1 (stereo unspecified): Condition not met
O=C(Cc1ccccn1)N1CCc2nc(-c3cnccn3)nc(O)c2C1: Condition not met
COc1ncc(CN2C[C@@H]3C[C@@H](O)CN3C[C@@H]2Cc2ccccc2)cn1: Condition met

Check the entry CNC(=O)[C@H]1C[C@@H]2CN(C(=O)c3ccc(C)nc3)C[C@@H]2N1C(C)C : does INHIBITION equal or exceed 30%? Condition not met

Assess whether reported INHIBITION for CSc1ccccc1C(=O)N1C[C@@H]2CC[C@H]1CN(C(=O)C1CCC1)C2 sits at 30% or higher. Condition not met

Check if INHIBITION >= 30% (inclusive). Item: COCC(=O)N1CCc2nc(-c3cnccn3)nc(O)c2C1 Condition met

###

System: Plasmodium berghei
Test: Screen against P. berghei liver stage (PbLuc), transformed with Luciferase, at 10uM
Assay type: functional, HepG2
Conditions: tested at 10 uM
The whole screen tested about 69,000 compounds, of which about 8,600 (12%) showed an effect of 50% or more. This excerpt belongs to a sample that is enriched for strong results.
Binary label based on INHIBITION with cut-off 20%: below gives criterion met, not below gives criterion not met.

Cc1csc(CN(C)C(=O)Nc2cnn(CC3CCCO3)c2)n1 (centres undefined): criterion met
COCC1CN(C(=O)Cc2ccccn2)Cc2c1cnn2CC1CC1 (centres undefined): criterion met
CCOCC1CN(C(=O)Cc2ccccn2)Cc2c1cnn2C (centres undefined): criterion not met
COc1cc(CN(Cc2ccccn2)CC(C)C)cc2c1OCO2: criterion not met
CO[C@H]1CN(C(=O)c2ccc3c(c2)OCO3)[C@@H]2COC[C@H]12: criterion met
Cn1ncc2ccc(C3CCCN(C(=O)Cc4cccs4)C3)nc21 (centres undefined): criterion not met

Input CC(C)N1CCC2(CC1)C[C@@H](O)[C@H](c1ccccc1)NC2=O ; condition: INHIBITION strictly below 20%. Does it hold? criterion not met

For this molecule, is INHIBITION lower than 20%? CCO[C@H]1CN(C(=O)c2ccc3c(c2)OCO3)[C@@H]2COC[C@H]12 criterion not met

Does the reported INHIBITION of the following molecule sit strictly below 20%? O=C(c1cnc(O)cn1)N1CCC(CN2CCOCC2)CC1 criterion met

Report whether reported INHIBITION is lower than 20% (strictly) for Cn1ncc2c1CN(C(=O)Cc1ccccn1)CC2COCC1CC1 (centres undefined) criterion not met

Determine whether this molecule shows INHIBITION lower than 20% (ties excluded): COCc1nn(C(C)C)c2c1CCN(Cc1ccc(C)o1)C2 criterion not met

Please state whether INHIBITION is below 20% for CC1CN(Cc2cccc(CNC3CCCC3)c2)CCO1 (centres undefined) criterion not met

###

Test system: Plasmodium berghei
Experiment: Screen against P. berghei liver stage (PbLuc), transformed with Luciferase, at 10uM
Type: functional, HepG2
Settings: tested at 10 uM
Hit rate of the full screen: of about 69,000 compounds, about 8,600 (12%) showed an effect of 50% or more. Shown is part of a subset that was picked to be rich in strong results.
PROPERTY: INHIBITION (%)
Could you give me the number in %? Just the number is fine.

These solved cases illustrate the format of a correct answer.
c1cn2c(n1)CN(CC1CC1)CC(CN1CCOCC1)C2 (stereo not given): 42.1
Cc1cc(CNC(=O)NC(C)c2ccc(N3CCOCC3)cc2)no1 (stereo not given): 35.1
O=C(Cn1ncc2ccccc21)Nc1ccnn1CC1CCOC1 (stereo not given): 36.5
CCn1cc2c(n1)C(COC)CN(Cc1ccoc1)C2 (stereo not given): 58.7
CCOCC1c2c(ncn2C)CCN1C(=O)c1cscn1 (stereo not given): 60.2

Noted for COCC1CN(Cc2ccoc2)Cc2cn(C)nc21 (stereo not given) : its INHIBITION reads 7.24

The value of INHIBITION measured for the compound CCOCC1c2c(ncn2C(C)C)CCN1C(=O)CC (stereo not given) turned out to be 29.8

The reported value for CCOc1ccc(Cl)c(C(=O)NCCS(N)(=O)=O)n1 in terms of INHIBITION is 35.3

For COCC1CN(Cc2ccoc2)Cc2cn(CC3CCCC3)nc21 (stereo not given) the compound record lists INHIBITION as 34.6

Value of INHIBITION reported for the compound O=C1CCN(CCCS(=O)(=O)c2ccc(Cl)cc2)CCN1 is 20.6

Noted for CCN(C)C(=O)c1coc(COc2ccccc2)n1 : its INHIBITION reads -8.47

###

Tested on: Plasmodium berghei
Assay: Screen against P. berghei liver stage (PbLuc), transformed with Luciferase, at 10uM
Assay type: functional, HepG2
Settings: tested at 10 uM
Hit rate of the full screen: of about 69,000 compounds, about 8,600 (12%) showed an effect of 50% or more. Only a selection was taken, and strong results are over-represented in it overall.
PROPERTY: INHIBITION (%)
A number alone suffices; assume %.

Worked set:
Cc1cccc2c1cnn2CCCNC(=O)C(C)C: 0.139
O=C(CN1CCCC1Cn1cncn1)NCCc1c(F)cccc1F (configuration not stated): 57.2
Cc1ccnn1CCCNC(=O)C1CCN(S(C)(=O)=O)CC1: 77.7

The recorded INHIBITION for entry COCC(=O)NCCCn1ncc2c(C)cccc21 equals 20.1

// INHIBITION lookup, compound = CCN1CCC(NC(=O)CN2CCCCC2Cn2cncn2)CC1 (configuration not stated) , result: -36.1
